- Test system: T-47D
- assay-remarks: viability inhibition at highest dose (% inhibition); higher = more growth inhibition
- test-parameters: 4-OH-tamoxifen in medium 0 µM; 72 h
Counter-ions that a name gives are not always drawn.
readout-label: viability inhibition at highest dose

Study these solved cases before continuing.
| molecule | measured-on | viability inhibition at highest dose |
| --- | --- | --- |
| CCS(=O)(=O)c1cccc(-c2cc(C(=O)NC3CCN(C)CC3)c(C)c3[nH]c4ncc(C)cc4c23)c1 [TAK-901] (drug 1000 nM) | T-47D | 40.7 |
| N[C@@H](CSC(c1ccccc1)(c1ccccc1)c1ccccc1)C(=O)O [S-trityl-L-cysteine] (drug 40000 nM) | T-47D | 2.31 |
| CNC(=O)c1cc(Oc2ccc(NC(=O)Nc3ccc(Cl)c(C(F)(F)F)c3)c(F)c2)ccn1 [Regorafenib (BAY 73-4506)] (drug 10000 nM) | T-47D | 29.1 |
| CCCCCOC(=O)Nc1nc(=O)n([C@@H]2O[C@H](C)[C@@H](O)[C@H]2O)cc1F [Capecitabine] (drug 10000 nM) | T-47D | -17.6 |
| CCN(CC)CCNC(=O)c1c(C)[nH]c(/C=C2\C(=O)Nc3ccc(F)cc32)c1C (drug 1000 nM) | T-47D | -6.3 |

Ask | Query the reported viability inhibition at highest dose for T-47D; item: CC(C)Cn1cnc2c(N)nc3ccccc3c21 [Imiquimod] (drug 10000 nM)
Reply | 16.1

Ask | Query the reported viability inhibition at highest dose for T-47D; item: O=C(/C=C/c1cccnc1)NCCCCC1CCN(C(=O)c2ccccc2)CC1 [Daporinad (FK-866 HCl)] (drug 1000 nM)
Reply | 92.2

Ask | Query the reported viability inhibition at highest dose for T-47D; item: Cc1ccc(C(=O)N(CCCN)[C@@H](c2oc3cc(Cl)ccc3c(=O)c2Cc2ccccc2)C(C)C)cc1 (drug 100 nM)
Reply | -16.7

Ask | Query the reported viability inhibition at highest dose for T-47D; item: CC1(C)CCC(c2ccc(Cl)cc2)=C(CN2CCN(c3ccc(C(=O)NS(=O)(=O)c4ccc(N[C@H](CCN5CCOCC5)CSc5ccccc5)c(S(=O)(=O)C(F)(F)F)c4)cc3)CC2)C1 [Navitoclax (ABT-263)] (drug 10000 nM)
Reply | 0.832

Ask | Query the reported viability inhibition at highest dose for T-47D; item: O=C(CCBr)N1CCN(C(=O)CCBr)CC1 [Pipobroman] (drug 10000 nM)
Reply | -14.7

====

- Tested on: MCF-7 Tam1
- assay-remarks: drug sensitivity score (DSS) (DSS (dimensionless)); higher = more sensitive; extreme values may be limits of the assay
- test-parameters: 4-OH-tamoxifen in medium 1 µM; 72 h
Is drug sensitivity score at least 0.02? Then 1.0. If not, 0.0.

Recorded results for 10 molecules are shown here.
| molecule | measured-on | assigned-category |
| --- | --- | --- |
| O=C(CCCCCCC(=O)Nc1ccccc1)NO [Vorinostat] | MCF-7 Tam1 | 1.0 |
| C#Cc1cccc(Nc2ncnc3cc(OCCOC)c(OCCOC)cc23)c1 [Erlotinib] | MCF-7 Tam1 | 1.0 |
| Cn1cc(C2=C(c3cn(C4CCN(Cc5ccccn5)CC4)c4ccccc34)C(=O)NC2=O)c2ccccc21 [Enzastaurin] | MCF-7 Tam1 | 0.0 |
| COCC1(CO)C(=O)C2CCN1CC2 (stereo not given) [Prima-1 Met] | MCF-7 Tam1 | 0.0 |
| C[C@@]1(C(=O)Nc2ccc(F)nc2)CCCN1c1nc(Nc2cc(C3CC3)n[nH]2)c2cccn2n1 | MCF-7 Tam1 | 1.0 |
| CCc1c(C(=O)C(N)=O)c2c(OCC(=O)O)cccc2n1Cc1ccccc1 [Varespladib] | MCF-7 Tam1 | 0.0 |
| CC(C)C[C@H](NC(=O)[C@H](CCc1ccccc1)NC(=O)CN1CCOCC1)C(=O)N[C@@H](Cc1ccccc1)C(=O)N[C@@H](CC(C)C)C(=O)[C@@]1(C)CO1 [Carfilzomib] | MCF-7 Tam1 | 1.0 |
| CCC1=C[C@@H]2CN(C1)Cc1c([nH]c3ccccc13)[C@@](C(=O)OC)(c1cc3c(cc1OC)N(C)[C@H]1[C@@](O)(C(=O)OC)[C@H](OC(C)=O)[C@]4(CC)C=CCN5CC[C@]31[C@@H]54)C2 [Vinorelbine (tartrate)] | MCF-7 Tam1 | 0.0 |
| CC1=C2C[C@H]3[C@@H](CC=C4C[C@@H](O)CC[C@@]43C)[C@@H]2CC[C@]12O[C@@H]1C[C@H](C)CN[C@H]1[C@H]2C [Cyclopamine] | MCF-7 Tam1 | 0.0 |
| CN1CCN(CCOc2cc(OC3CCOCC3)c3c(Nc4c(Cl)ccc5c4OCO5)ncnc3c2)CC1 [Saracatinib] | MCF-7 Tam1 | 0.0 |

Ask | Decide: drug sensitivity score of CC(C)(C)c1cc(NC(=O)Nc2ccc(-c3cn4c(n3)sc3cc(OCCN5CCOCC5)ccc34)cc2)no1 [Quizartinib (AC220)] >= 0.02?
Reply | 0.0

Ask | Decide: drug sensitivity score of Cc1c(CN2CCN(C(=O)[C@H](C)O)CC2)sc2c(N3CCOCC3)nc(-c3cnc(N)nc3)nc12 [GDC-0980] >= 0.02?
Reply | 1.0

Ask | Decide: drug sensitivity score of COc1cccc2c1C(=O)c1c(O)c3c(c(O)c1C2=O)C[C@@](O)(C(=O)CO)C[C@@H]3O[C@H]1C[C@H](N)[C@H](O)[C@H](C)O1 [Doxorubicin] >= 0.02?
Reply | 1.0

Ask | Decide: drug sensitivity score of Oc1nc(-c2ccc(C(F)(F)F)cc2)nc2c1CSCC2 [XAV-939] >= 0.02?
Reply | 0.0

Ask | Decide: drug sensitivity score of CNNCc1ccc(C(=O)NC(C)C)cc1 [Procarbazine] >= 0.02?
Reply | 0.0

====

- Tested on: ZR-75-1 Tam1
- assay-remarks: viability inhibition at highest dose (% inhibition); higher = more growth inhibition
- test-parameters: 4-OH-tamoxifen in medium 1 µM; 72 h
Counter-ions that a name gives are not always drawn.
readout-label: viability inhibition at highest dose
The answer should be a number; do not append a unit.

| compound | measured-on | viability inhibition at highest dose |
| --- | --- | --- |
| COCC1(CO)C(=O)C2CCN1CC2 (centres undefined) [Prima-1 Met] (drug 10000 nM) | ZR-75-1 Tam1 | -1.64 |
| CCNC(=O)c1noc(-c2cc(C(C)C)c(O)cc2O)c1-c1ccc(CN2CCOCC2)cc1 [NVP-AUY922] (drug 1000 nM) | ZR-75-1 Tam1 | 28.5 |
| Cc1cccc(-c2nn3c(c2-c2ccnc4ccc(C(N)=O)cc24)CCC3)n1 (drug 1000 nM) | ZR-75-1 Tam1 | -1.45 |
| Cc1ccc([N+](=O)[O-])cc1S(=O)(=O)N(C)/N=C/c1cnc2ccc(Br)cn12 [PIK-75 (HCl)] (drug 10000 nM) | ZR-75-1 Tam1 | 88.8 |
| Cn1c(Nc2ccc(C(F)(F)F)cc2)nc2cc(Oc3ccnc(-c4ncc(C(F)(F)F)[nH]4)c3)ccc21 [RAF265] (drug 1000 nM) | ZR-75-1 Tam1 | -1.02 |
| Cc1cnc(NC(=O)Nc2cc(Br)c(C)cc2OC[C@@H]2CNCCO2)cn1 (drug 1000 nM) | ZR-75-1 Tam1 | -1.46 |
| C#Cc1cccc(Nc2ncnc3cc(OCCOC)c(OCCOC)cc23)c1 [Erlotinib] (drug 10000 nM) | ZR-75-1 Tam1 | 14.6 |
| COc1cc(F)c(F)c(Nc2ccc(I)cc2F)c1NS(=O)(=O)C1(C[C@H](O)CO)CC1 [Refametinib (RDEA119)] (drug 10000 nM) | ZR-75-1 Tam1 | 8.84 |

Ask | Which measured viability inhibition at highest dose value corresponds to COc1cc(Nc2ncc(F)c(Nc3ccc4c(n3)N(COP(=O)(O)O)C(=O)C(C)(C)O4)n2)cc(OC)c1OC (drug 10000 nM) ?
Reply | 28.5

Ask | Which measured viability inhibition at highest dose value corresponds to COC1=C2C[C@@H](C)C[C@H](OC)[C@H](O)[C@@H](C)/C=C(\C)[C@H](OC(N)=O)[C@@H](OC)/C=C\C=C(/C)C(=O)NC(=CC1=O)C2=O [Geldanamycin] (drug 10000 nM) ?
Reply | 69

====

- Test system: ZR-75-1
- assay-remarks: viability inhibition at highest dose (% inhibition); higher = more growth inhibition
- test-parameters: 4-OH-tamoxifen in medium 1 µM; 72 h
Label class 1 when viability inhibition at highest dose is strictly below -4; at or above that, label class 0.

Recorded results for 5 molecules are shown here.
| molecule | assigned-category |
| --- | --- |
| COc1cc2nccc(Oc3ccc(NC(=O)C4(C(=O)Nc5ccc(F)cc5)CC4)cc3)c2cc1OC [Cabozantinib (XL184)] (drug 1000 nM) | class 0 |
| COC1=CC(c2cc3ccccc3[nH]2)=N/C1=C\c1[nH]c(C)cc1C [Obatoclax (GX15-070)] (drug 10000 nM) | class 0 |
| CO[C@H]1C[C@@H]2CC[C@@H](C)[C@@](O)(O2)C(=O)C(=O)N2CCCC[C@H]2C(=O)O[C@H]([C@H](C)C[C@@H]2CC[C@@H](OC(=O)C(C)(CO)CO)[C@H](OC)C2)CC(=O)[C@H](C)/C=C(\C)[C@@H](O)[C@@H](OC)C(=O)[C@H](C)C[C@H](C)/C=C/C=C/C=C/1C [Temsirolimus] (drug 100 nM) | class 0 |
| C[C@H]1C[C@@H]2[C@H]([C@@H](O)C[C@@]3(C)[C@H]2CC[C@]3(O)C(=O)CO)[C@@]2(C)C=CC(=O)C=C12 [Methylprednisolone] (drug 10000 nM) | class 1 |
| CCCCCCCCc1ccc(CCC(N)(CO)CO)cc1 [Fingolimod] (drug 10000 nM) | class 0 |

Ask | Please determine if Cn1nnc2c(C(N)=O)ncn2c1=O [Temozolomide] (drug 10000 nM) is below -4 in terms of viability inhibition at highest dose.
Reply | class 1

Ask | Please determine if CCN(CC)CCCC(C)Nc1ccnc2cc(Cl)ccc12 (centres undefined) [Chloroquine] (drug 990000 nM) is below -4 in terms of viability inhibition at highest dose.
Reply | class 0

Ask | Please determine if NC(=O)c1cccc2cn(-c3ccc([C@@H]4CCCNC4)cc3)nc12 [MK-4827] (drug 10000 nM) is below -4 in terms of viability inhibition at highest dose.
Reply | class 0
